Assay: Rat PK study #1 (Compound A PO, methylcellulose vs propylene glycol formulation)
Type: in vivo, Lewis rats
Settings: male, Lewis, rat, plasma, po, 10 mg/kg, Lewis rats, PO 10 mg/kg, 1% methylcellulose formulation, individual animals
quantity_name: Tmax

smiles_record=Cn1cc(-c2ccccc2)c(-c2cn(C)c(=O)c3[nH]c(-c4cnn(C(F)(F)F)c4)cc23)cc1=O result="4 h"

* * *

Test: Dog PK study #4 (Compound A PO daily 14 days, 1/3/10 mg/kg; toxicokinetics, platelet counts)
Format: in vivo, beagle dogs
Conditions: beagle, dog, plasma, oral; after daily administration for 14 days, 10 mg/kg, Male, 0.5 h
quantity_name: concentration at 0.5 h

smiles_record=Cn1cc(-c2ccccc2)c(-c2cn(C)c(=O)c3[nH]c(-c4cnn(C(F)(F)F)c4)cc23)cc1=O result="1.01 µg/mL"
